# tgt: ovine COX-1 (Ovis aries, UniProt P05979)
# Sequence (P05979 25-600): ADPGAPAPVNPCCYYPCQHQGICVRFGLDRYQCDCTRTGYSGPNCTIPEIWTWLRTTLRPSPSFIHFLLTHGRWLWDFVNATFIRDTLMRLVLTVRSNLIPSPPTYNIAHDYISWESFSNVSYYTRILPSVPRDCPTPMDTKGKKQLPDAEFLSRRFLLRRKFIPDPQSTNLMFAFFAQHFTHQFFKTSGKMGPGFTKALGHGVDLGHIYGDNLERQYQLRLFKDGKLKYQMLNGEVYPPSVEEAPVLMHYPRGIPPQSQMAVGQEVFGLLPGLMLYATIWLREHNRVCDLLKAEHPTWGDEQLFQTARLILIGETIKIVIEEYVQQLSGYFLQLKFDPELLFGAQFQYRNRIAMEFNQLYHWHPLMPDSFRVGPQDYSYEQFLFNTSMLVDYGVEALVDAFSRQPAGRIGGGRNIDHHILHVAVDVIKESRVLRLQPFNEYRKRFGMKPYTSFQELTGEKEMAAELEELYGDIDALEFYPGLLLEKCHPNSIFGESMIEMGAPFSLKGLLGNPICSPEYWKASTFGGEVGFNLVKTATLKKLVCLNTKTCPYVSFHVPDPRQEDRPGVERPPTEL
# procedure_text: COX-1 inhibition, enzyme immune assay (EIA) kit
# experimental_conditions: conc 0.1 (μM)
measured_metric: COX1 %inh (%)
Please give a number only; it is taken to be in %.

Some solved cases for reference:
Cc1ccc(N2C(=O)CSC2=NN=Cc2cn(S(C)(=O)=O)c3ccccc23)cc1 [Compound 5d] : 8.83
CS(=O)(=O)n1cc(/C=N/N=C2/NCC(=O)S2)c2ccccc21 [Compound 5a] : 13.6
CS(=O)(=O)n1cc(/C=N/NC(=O)Nc2ccccc2)c2ccccc21 [Compound 3b] : 3.48
CS(=O)(=O)n1cc(/C=N/N=C2\SC(=O)CN2c2ccccc2)c2ccccc21 [Compound 5c] : 4.55

Data request: Give measured COX1 %inh for CCN1CC(=O)S/C1=N\N=C\c1cn(S(C)(=O)=O)c2ccccc12 [Compound 5b] (ovine COX-1 (Ovis aries, UniProt P05979)).
Data returned: 7.23

Data request: Give measured COX1 %inh for CS(=O)(=O)n1cc(/C=N/NC(=S)Nc2ccccc2)c2ccccc21 [Compound 4c] (ovine COX-1 (Ovis aries, UniProt P05979)).
Data returned: 11

* * *

# tgt: ovine COX-1 (Ovis aries, UniProt P05979)
# procedure_text: COX-1 inhibition, enzyme immune assay (EIA) kit
# experimental_conditions: IC50 COX-1
measured_metric: IC50 (µM)
Please give a number only; it is taken to be in µM.

Some solved cases for reference:
CS(=O)(=O)n1cc(/C=N/NC(N)=O)c2ccccc21 : 21.1
COc1ccc(NC(=S)N/N=C/c2cn(S(C)(=O)=O)c3ccccc23)cc1 : 24.7
CS(=O)(=O)n1cc(/C=N/NC(N)=S)c2ccccc21 : 11.3
CS(=O)(=O)n1cc(/C=N/NC(=S)Nc2ccccc2)c2ccccc21 : 5.01
CCNC(=S)N/N=C/c1cn(S(C)(=O)=O)c2ccccc12 : 28.5

Data request: Give measured IC50 for Cc1ccc(N2C(=O)CSC2=NN=Cc2cn(S(C)(=O)=O)c3ccccc23)cc1 (ovine COX-1 (Ovis aries, UniProt P05979)).
Data returned: 5.79

Data request: Give measured IC50 for CS(=O)(=O)n1cc(/C=N/NC(=O)Nc2ccccc2)c2ccccc21 (ovine COX-1 (Ovis aries, UniProt P05979)).
Data returned: 32

Data request: Give measured IC50 for Cc1ccc(NC(=S)N/N=C/c2cn(S(C)(=O)=O)c3ccccc23)cc1 (ovine COX-1 (Ovis aries, UniProt P05979)).
Data returned: 17.1
